- PROTOCOL_DESCRIPTION: Solubility of lurasidone or a free form thereof in additives (Table 1), visual check
- Assay type: physicochemical
- STATED_CONDITIONS: oil or lipid, thermodynamic from solid; additive No. 46: Sesame oil
Where a name gives a salt, the structure may show the parent alone.
MEASURED_PROPERTY: solubility at 30 min

Determine from records and report solubility at 30 min for O=C1[C@@H]2[C@H]3CC[C@H](C3)[C@@H]2C(=O)N1C[C@@H]1CCCC[C@H]1CN1CCN(c2nsc3ccccc23)CC1 [Lurasidone, hydrochloride]
1000 to 10000 µg/mL
